Structures can show the parent of a compound that is named as a salt.
Quick reference for melting point among some compounds

{"columns": ["compound", "melting point"],
 "data": [
  ["COC(=O)c1ccc(N2C3CCC2CN(CC(=O)N2CC=C(c4ccc5sc(C)cc5c4)CC2)C3)nc1", "179 to 180 °C"]
]}

stdin: Report melting point for O=C(CN1CCN(c2ccc3ccccc3n2)CC1)N1CC=C(c2c[nH]c3ccccc23)CC1 [Compound 98] please.
stdout: 213 to 215 °C

stdin: May I ask what melting point has been recorded for C[C@@H]1CN(c2ccc3ccccc3n2)C[C@H](C)N1CC(=O)N1CC=C(c2cccc3ccsc23)CC1 (as salt: HCl) [Compound 19] ?
stdout: 192 to 193 °C

stdin: Any idea what its melting point is? The compound is C[C@@H]1CN(c2ccc(C(F)(F)F)cn2)C[C@H](C)N1CC(=O)N1CC=C(c2cccc3ccoc23)CC1 [Compound 34]
stdout: 138 to 139 °C

stdin: Please look up its melting point: O=C(CN1CCN(c2ccc(C(F)(F)F)cn2)C(=O)C1)N1CC=C(c2cccc3ccsc23)CC1 [Compound 31]
stdout: 143 to 146 °C

stdin: If you can, please state the reported melting point value of Cc1cc2cc(C3=CCN(C(=O)CN4CCN(c5ccnc6cc(Cl)ccc56)CC4)CC3)ccc2s1 [Compound 117] .
stdout: 90 to 93 °C

stdin: Reported melting point, compound O=C(CN1CC2CCC(C1)N2c1ncc(F)cn1)N1CC=C(c2coc3ccccc23)CC1 : ____
stdout: 207 to 210 °C

stdin: Please look up its melting point: Cc1cc2cc(C3=CCN(C(=O)CN4CC5CCC(C4)N5c4ccc(C(=O)OC5CCC5)cn4)CC3)ccc2s1
stdout: 153 to 154 °C

* * *

Counter-ions that a name gives are not always drawn.
Recorded measurements of melting point, one per entry

{"columns": ["compound", "measured.attribute", "reported.value"],
 "data": [
  ["C[C@@H]1CN(c2ccc(C(F)(F)F)cn2)C[C@H](C)N1CC(=O)N1CCC=C(c2cccc3ccoc23)C1", "melting point", "129 to 130 °C"],
  ["C[C@@H]1CN(c2ccc(-c3nnn(C)n3)cn2)C[C@H](C)N1CC(=O)N1CC=C(c2cccc3ccoc23)CC1 (as salt: oxalate)", "melting point", "165 to 170 °C"]
]}

stdin: So what's the measured melting point for this one? C[C@@H]1CN(c2ccc3ccccc3n2)C[C@H](C)N1CC(=O)N1CC=C(c2c[nH]c3ccccc23)CC1
stdout: 198 to 200 °C

* * *

Readings of melting point for the listed molecules

{"columns": ["molecule", "melting point"],
 "data": [
  ["O=C(CN1CC2CCC(C1)N2c1ncc(F)cn1)N1CC=C(c2csc3ccccc23)CC1", "172 to 174 °C"],
  ["O=C(CN1CC2CCC(C1)N2c1ncc(F)cn1)N1CC=C(c2cccc3ccoc23)CC1", "157 to 158 °C"],
  ["Cc1cc2cc(C3=CCN(C(=O)CN4CCN(c5ccc6ccccc6n5)CC4)CC3)ccc2s1 [Compound 114]", "189 to 190 °C"]
]}

With those in mind, consider the next molecule.
stdin: Quick check: melting point of O=C(CN1CCN(c2cccc(Cl)n2)CC1)N1CC=C(c2c[nH]c3ccccc23)CC1 [Compound 108] ?
stdout: 202 to 204 °C
